Biological target: SYK (Homo sapiens, UniProt P43405)
Assay: Tyrosine kinase inhibition assay
Assay type: biochemical
Details: single concentration 1.0 μM, read-out: percent inhibition
Method: Tyrosine kinase inhibition assays were performed at ThermoFisher Life Technologies (Madison, WI, USA) using standard protocols (SelectScreen Biochemical Profiling Service, Thermo Fisher Scientific). ATP concentrations used were at the apparent Km. […] The apparent ATP Km was previously determined using a Z′-LYTE assay. […] The inhibition activities of compounds were determined in biochemical assays using single concentration (1.0 μM) measurements. […]
Is inhibition at 1 µM at least 20%? Then 1. If not, 0.

Example results:
# compound, subject_of_test, category_label
data = [
    ("COc1cc2nccc(Oc3ccc(NC(=O)C4(NC(=O)c5ccc(F)cc5)CC4)cc3F)c2cc1Oc1c(F)cc(N)cc1F", "SYK (Homo sapiens, UniProt P43405)", 1),
    ("COc1cc2nccc(Oc3ccc(NC(=O)C4(NC(=O)c5ccc(F)cc5)CC4)cc3F)c2cc1Oc1ccc(N)cc1F", "SYK (Homo sapiens, UniProt P43405)", 1),
    ("COc1cc2nccc(Oc3ccc(NC(=O)C4(C(=O)Nc5ccc(F)cc5)CC4)cc3F)c2cc1Oc1ccc(N)cc1F", "SYK (Homo sapiens, UniProt P43405)", 0),
    ("COc1cc2nccc(Oc3ccc(NC(=O)C4(C(=O)Nc5ccc(F)cc5)CC4)cc3)c2cc1OC [Cabozantinib, reference compound]", "SYK (Homo sapiens, UniProt P43405)", 0),
]

For this compound, is measured inhibition at 1 µM 20% or higher? COc1cc2nccc(Oc3ccc(NC(=O)C4(NC(=O)c5ccc(F)cc5)CC4)cc3F)c2cc1OC
0

* * *

Values of pIC50 reported for TEK (Tie2) (Homo sapiens, UniProt Q02763) appear below.
// field semantics: pIC50 = negative decimal log of concentration (mol/L)

# compound, subject_of_test, readout_value
rows = [
    ("COc1cc2nccc(Oc3ccc(NC(=O)C4(C(=O)Nc5ccc(F)cc5)CC4)cc3F)c2cc1Oc1ccc(N)cc1F", "TEK (Tie2) (Homo sapiens, UniProt Q02763)", 7.20),
]

Send back TEK (Tie2) (Homo sapiens, UniProt Q02763) pIC50 of CNC(=O)c1cc2c(Oc3ccc(NC(=O)C4(C(=O)Nc5ccc(F)cc5)CC4)cc3)ccnc2cc1OC [Zanzalintinib, reference compound] only.
6.82

* * *

Measured inhibition at 1 µM values are reported for all entries that follow.
Biological target: ERBB2 (HER2) (Homo sapiens)
Sequence (P04626 23-1255): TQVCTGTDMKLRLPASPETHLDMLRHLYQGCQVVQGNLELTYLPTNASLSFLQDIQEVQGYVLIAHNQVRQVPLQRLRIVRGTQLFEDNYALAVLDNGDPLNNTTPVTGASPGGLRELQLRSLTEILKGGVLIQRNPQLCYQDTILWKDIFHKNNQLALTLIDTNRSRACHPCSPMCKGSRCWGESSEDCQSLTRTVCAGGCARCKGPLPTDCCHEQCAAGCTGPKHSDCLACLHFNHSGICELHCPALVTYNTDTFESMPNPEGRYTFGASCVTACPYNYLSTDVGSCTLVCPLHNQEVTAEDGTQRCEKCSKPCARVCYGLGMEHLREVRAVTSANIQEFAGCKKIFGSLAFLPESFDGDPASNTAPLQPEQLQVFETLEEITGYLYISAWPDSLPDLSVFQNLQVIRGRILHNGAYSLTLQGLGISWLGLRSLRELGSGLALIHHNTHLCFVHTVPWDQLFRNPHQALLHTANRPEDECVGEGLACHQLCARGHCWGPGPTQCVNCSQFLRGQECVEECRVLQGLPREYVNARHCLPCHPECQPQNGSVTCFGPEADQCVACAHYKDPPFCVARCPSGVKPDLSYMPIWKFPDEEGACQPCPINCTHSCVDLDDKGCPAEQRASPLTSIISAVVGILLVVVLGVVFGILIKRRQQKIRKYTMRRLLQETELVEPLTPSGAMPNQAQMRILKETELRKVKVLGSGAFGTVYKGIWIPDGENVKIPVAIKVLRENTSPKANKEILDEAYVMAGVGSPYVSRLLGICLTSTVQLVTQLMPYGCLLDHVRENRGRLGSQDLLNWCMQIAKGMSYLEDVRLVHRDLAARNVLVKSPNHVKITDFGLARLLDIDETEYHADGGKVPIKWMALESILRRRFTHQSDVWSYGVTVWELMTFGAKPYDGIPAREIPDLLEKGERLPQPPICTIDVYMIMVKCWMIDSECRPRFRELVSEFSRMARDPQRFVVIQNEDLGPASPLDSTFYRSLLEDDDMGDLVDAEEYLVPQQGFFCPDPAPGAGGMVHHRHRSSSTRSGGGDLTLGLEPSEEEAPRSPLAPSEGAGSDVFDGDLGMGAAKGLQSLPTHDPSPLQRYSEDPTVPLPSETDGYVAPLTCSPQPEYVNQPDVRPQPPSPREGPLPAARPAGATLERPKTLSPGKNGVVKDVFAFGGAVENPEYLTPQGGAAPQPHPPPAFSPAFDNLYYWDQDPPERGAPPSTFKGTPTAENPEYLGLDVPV
Assay: Tyrosine kinase inhibition assay
Type: biochemical
Conditions: single concentration 1.0 μM, read-out: percent inhibition
Hi! Could you send only the number? It should be in %, unit omitted.

Take a look at these entries with their results.
# compound, subject_of_test, inhibition at 1 µM / %
data = [
    ("COc1cc2nccc(Oc3ccc(NC(=O)C4(C(=O)Nc5ccc(F)cc5)CC4)cc3F)c2cc1Oc1ccc(N)cc1F", "ERBB2 (HER2) (Homo sapiens)", 54),
    ("COc1cc2nccc(Oc3ccc(NC(=O)C4(NC(=O)c5ccc(F)cc5)CC4)cc3F)c2cc1OC", "ERBB2 (HER2) (Homo sapiens)", 50),
    ("COc1cc2nccc(Oc3ccc(NC(=O)C4(NC(=O)c5ccc(F)cc5)CC4)cc3F)c2cc1Oc1c(F)cc(N)cc1F", "ERBB2 (HER2) (Homo sapiens)", 90),
    ("COc1cc2nccc(Oc3ccc(NC(=O)C4(NC(=O)c5ccc(F)cc5)CC4)cc3F)c2cc1Oc1ccc(N)cc1F", "ERBB2 (HER2) (Homo sapiens)", 90),
]

Would you kindly look at the next entry?
Tell me inhibition at 1 µM of COc1cc2nccc(Oc3ccc(NC(=O)C4(C(=O)Nc5ccc(F)cc5)CC4)cc3)c2cc1OC [Cabozantinib, reference compound] when tested on ERBB2 (HER2) (Homo sapiens).
17

* * *

Target: ALK (Homo sapiens)
Sequence (Q9UM73 19-1620): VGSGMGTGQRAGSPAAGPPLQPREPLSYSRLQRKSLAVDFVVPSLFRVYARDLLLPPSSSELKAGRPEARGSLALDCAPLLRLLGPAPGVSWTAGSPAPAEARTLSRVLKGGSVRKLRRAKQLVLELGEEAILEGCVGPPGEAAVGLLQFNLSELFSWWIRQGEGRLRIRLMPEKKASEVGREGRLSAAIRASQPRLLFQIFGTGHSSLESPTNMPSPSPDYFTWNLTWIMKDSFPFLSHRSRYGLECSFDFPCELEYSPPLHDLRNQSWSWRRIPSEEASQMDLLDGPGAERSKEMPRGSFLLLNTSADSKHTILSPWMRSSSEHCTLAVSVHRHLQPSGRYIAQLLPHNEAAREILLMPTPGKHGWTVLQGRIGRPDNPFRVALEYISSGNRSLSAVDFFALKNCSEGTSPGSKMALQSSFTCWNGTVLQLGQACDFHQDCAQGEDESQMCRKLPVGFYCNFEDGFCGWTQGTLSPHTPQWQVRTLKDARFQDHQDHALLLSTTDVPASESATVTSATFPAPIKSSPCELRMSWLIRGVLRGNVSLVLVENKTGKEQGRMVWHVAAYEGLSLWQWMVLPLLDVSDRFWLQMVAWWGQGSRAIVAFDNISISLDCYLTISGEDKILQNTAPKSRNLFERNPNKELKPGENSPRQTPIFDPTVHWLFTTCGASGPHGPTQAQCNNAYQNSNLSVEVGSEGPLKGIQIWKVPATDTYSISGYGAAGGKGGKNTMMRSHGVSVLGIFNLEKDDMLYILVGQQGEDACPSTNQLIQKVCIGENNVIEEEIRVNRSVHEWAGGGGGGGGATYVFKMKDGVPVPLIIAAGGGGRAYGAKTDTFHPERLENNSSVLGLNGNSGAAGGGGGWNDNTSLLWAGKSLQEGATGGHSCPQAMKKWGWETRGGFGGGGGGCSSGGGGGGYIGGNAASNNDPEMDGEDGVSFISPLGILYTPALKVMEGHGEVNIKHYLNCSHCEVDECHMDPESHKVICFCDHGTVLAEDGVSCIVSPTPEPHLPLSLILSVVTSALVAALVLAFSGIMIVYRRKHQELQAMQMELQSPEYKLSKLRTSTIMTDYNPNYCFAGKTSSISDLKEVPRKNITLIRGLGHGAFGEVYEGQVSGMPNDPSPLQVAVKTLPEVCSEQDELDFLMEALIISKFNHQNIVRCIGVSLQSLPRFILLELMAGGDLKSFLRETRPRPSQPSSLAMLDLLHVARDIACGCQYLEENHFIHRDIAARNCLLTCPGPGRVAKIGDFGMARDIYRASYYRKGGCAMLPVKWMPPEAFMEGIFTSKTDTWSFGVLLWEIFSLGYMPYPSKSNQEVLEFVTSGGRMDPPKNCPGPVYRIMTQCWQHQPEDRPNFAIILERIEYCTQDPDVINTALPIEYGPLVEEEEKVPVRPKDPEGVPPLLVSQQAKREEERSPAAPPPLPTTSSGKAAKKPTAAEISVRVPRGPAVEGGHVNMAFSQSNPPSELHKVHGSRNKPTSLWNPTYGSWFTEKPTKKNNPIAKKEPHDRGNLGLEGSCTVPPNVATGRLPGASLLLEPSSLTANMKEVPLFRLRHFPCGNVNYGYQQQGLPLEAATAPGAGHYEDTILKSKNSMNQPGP
Test: Tyrosine kinase inhibition assay
Assay type: biochemical
Settings: single concentration 1.0 μM, read-out: percent inhibition
Note to self: values exactly at 30% are fulfilled. So inhibition at 1 µM at or above 30% is fulfilled, below is not fulfilled.

Examples with answers:
# molecule, subject_of_test, category_label
records = [
    ("COc1cc2nccc(Oc3ccc(NC(=O)C4(C(=O)Nc5ccc(F)cc5)CC4)cc3)c2cc1OC [Cabozantinib, reference compound]", "ALK (Homo sapiens)", "not fulfilled"),
    ("COc1cc2nccc(Oc3ccc(NC(=O)C4(C(=O)Nc5ccc(F)cc5)CC4)cc3F)c2cc1Oc1ccc(N)cc1F", "ALK (Homo sapiens)", "fulfilled"),
    ("COc1cc2nccc(Oc3ccc(NC(=O)C4(NC(=O)c5ccc(F)cc5)CC4)cc3F)c2cc1Oc1ccc(N)cc1F", "ALK (Homo sapiens)", "fulfilled"),
    ("COc1cc2nccc(Oc3ccc(NC(=O)C4(NC(=O)c5ccc(F)cc5)CC4)cc3F)c2cc1Oc1c(F)cc(N)cc1F", "ALK (Homo sapiens)", "fulfilled"),
]

Now consider a different molecule.
Hello, I need to know if COc1cc2nccc(Oc3ccc(NC(=O)C4(NC(=O)c5ccc(F)cc5)CC4)cc3F)c2cc1OC has measured inhibition at 1 µM not below 30%. Thanks!
not fulfilled

* * *

Observed pIC50 for UniProt P08631, reported per entry below.
Sequence (P08631 whole entry): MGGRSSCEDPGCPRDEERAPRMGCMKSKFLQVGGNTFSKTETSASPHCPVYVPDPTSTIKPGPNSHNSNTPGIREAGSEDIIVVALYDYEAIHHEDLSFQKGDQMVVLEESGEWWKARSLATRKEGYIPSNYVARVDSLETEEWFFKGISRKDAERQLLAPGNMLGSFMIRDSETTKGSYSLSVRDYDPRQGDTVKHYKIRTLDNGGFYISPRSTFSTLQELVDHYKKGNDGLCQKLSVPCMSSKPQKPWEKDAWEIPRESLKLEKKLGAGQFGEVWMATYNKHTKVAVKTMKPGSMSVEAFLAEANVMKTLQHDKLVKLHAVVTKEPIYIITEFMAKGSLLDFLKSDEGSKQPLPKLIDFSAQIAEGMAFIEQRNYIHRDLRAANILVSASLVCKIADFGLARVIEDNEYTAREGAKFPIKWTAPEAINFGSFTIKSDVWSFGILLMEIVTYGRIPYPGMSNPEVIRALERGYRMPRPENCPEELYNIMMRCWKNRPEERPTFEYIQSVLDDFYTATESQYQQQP
Note: pIC50 values are expressed as the negative base-10 logarithm of concentration in M.

Solved cases (2 shown):
# molecule, pIC50
records = [
    ("COc1cc2nccc(Oc3ccc(NC(=O)C4(C(=O)Nc5ccc(F)cc5)CC4)cc3)c2cc1OC [Cabozantinib, reference compound]", 6.95),
    ("CNC(=O)c1cc2c(Oc3ccc(NC(=O)C4(C(=O)Nc5ccc(F)cc5)CC4)cc3)ccnc2cc1OC [Zanzalintinib, reference compound]", 7.23),
]

Please examine the following record next.
Provide pIC50, recorded with UniProt P08631, of COc1cc2nccc(Oc3ccc(NC(=O)C4(C(=O)Nc5ccc(F)cc5)CC4)cc3F)c2cc1Oc1ccc(N)cc1F
7.67

* * *

Target: KDR (VEGFR2) (Homo sapiens, UniProt P35968)
Sequence (P35968 20-1356): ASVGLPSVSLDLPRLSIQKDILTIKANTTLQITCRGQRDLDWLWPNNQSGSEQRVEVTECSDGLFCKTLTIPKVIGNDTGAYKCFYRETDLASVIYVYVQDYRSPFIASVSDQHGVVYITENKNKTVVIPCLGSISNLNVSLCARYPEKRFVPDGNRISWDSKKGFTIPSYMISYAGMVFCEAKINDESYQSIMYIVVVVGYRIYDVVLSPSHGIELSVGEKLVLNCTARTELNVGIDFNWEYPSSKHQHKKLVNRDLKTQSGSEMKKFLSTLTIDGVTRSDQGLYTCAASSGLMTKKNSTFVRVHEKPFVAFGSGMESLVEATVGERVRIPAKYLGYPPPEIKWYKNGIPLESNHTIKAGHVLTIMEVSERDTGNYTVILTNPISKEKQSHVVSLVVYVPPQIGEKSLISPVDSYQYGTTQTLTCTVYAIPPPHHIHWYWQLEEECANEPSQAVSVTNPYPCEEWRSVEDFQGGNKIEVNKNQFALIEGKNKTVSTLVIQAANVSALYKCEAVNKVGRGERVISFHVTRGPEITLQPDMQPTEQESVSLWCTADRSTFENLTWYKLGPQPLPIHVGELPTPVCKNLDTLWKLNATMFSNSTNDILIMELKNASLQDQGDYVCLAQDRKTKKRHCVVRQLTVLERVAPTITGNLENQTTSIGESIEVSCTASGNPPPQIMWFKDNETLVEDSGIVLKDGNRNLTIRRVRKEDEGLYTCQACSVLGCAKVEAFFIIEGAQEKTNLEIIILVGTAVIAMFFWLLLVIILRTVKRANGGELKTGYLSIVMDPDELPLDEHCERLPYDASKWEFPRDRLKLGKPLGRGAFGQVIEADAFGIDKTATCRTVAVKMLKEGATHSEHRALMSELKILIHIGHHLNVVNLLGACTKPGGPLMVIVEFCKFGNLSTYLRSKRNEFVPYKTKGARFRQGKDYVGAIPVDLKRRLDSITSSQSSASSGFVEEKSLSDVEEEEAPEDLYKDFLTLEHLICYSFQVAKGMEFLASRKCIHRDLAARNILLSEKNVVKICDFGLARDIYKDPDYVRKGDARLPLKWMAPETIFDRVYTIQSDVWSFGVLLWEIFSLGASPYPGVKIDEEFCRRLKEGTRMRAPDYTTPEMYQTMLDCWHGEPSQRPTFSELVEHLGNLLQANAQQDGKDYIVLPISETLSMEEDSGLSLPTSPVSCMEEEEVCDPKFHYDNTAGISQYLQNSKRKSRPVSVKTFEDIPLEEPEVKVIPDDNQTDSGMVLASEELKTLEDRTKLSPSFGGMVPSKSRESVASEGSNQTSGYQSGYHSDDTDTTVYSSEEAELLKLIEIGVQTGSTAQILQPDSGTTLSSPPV
Assay: Tyrosine kinase inhibition assay
Type: biochemical
Conditions: single concentration 1.0 μM, read-out: percent inhibition
readout_type: inhibition at 1 µM (%)
Expressed in %, but write only the number.

Previously resolved entries follow.
# smi, inhibition at 1 µM (%)
records = [
    ("COc1cc2nccc(Oc3ccc(NC(=O)C4(C(=O)Nc5ccc(F)cc5)CC4)cc3F)c2cc1Oc1ccc(N)cc1F", 98),
    ("COc1cc2nccc(Oc3ccc(NC(=O)C4(NC(=O)c5ccc(F)cc5)CC4)cc3F)c2cc1Oc1ccc(N)cc1F", 98),
    ("COc1cc2nccc(Oc3ccc(NC(=O)C4(NC(=O)c5ccc(F)cc5)CC4)cc3F)c2cc1OC", 96),
]

Provide one value: measured inhibition at 1 µM of COc1cc2nccc(Oc3ccc(NC(=O)C4(NC(=O)c5ccc(F)cc5)CC4)cc3F)c2cc1Oc1c(F)cc(N)cc1F
100

* * *

Reported pIC50 values for a set of compounds
Molecular target: FLT3 (Homo sapiens, UniProt P36888)
Sequence (P36888 27-993): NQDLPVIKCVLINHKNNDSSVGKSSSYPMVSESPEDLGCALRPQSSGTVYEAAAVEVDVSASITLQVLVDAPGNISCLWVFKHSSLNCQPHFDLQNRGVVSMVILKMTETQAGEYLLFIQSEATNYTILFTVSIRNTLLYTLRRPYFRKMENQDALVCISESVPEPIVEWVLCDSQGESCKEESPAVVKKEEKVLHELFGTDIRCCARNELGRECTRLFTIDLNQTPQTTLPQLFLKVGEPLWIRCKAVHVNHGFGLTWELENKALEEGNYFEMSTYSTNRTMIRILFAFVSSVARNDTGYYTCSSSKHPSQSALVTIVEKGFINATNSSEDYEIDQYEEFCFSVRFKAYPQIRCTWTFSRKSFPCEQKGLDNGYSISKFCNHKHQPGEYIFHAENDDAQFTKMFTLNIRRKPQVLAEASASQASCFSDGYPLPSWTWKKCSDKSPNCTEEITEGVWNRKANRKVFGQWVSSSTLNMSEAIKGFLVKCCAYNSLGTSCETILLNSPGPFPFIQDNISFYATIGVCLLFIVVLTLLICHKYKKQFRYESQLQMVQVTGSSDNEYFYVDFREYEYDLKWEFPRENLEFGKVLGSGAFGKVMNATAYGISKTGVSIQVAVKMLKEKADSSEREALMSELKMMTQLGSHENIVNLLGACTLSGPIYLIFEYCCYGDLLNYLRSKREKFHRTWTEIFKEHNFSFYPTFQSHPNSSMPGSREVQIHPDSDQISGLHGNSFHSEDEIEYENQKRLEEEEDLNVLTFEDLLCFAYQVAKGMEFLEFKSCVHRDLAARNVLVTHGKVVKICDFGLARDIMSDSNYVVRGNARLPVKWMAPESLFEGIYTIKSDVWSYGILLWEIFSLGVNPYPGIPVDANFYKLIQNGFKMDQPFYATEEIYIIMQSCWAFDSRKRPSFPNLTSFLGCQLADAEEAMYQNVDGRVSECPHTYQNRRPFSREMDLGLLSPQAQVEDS
Note: pIC50 values are expressed as the negative base-10 logarithm of concentration in M.

# compound, subject_of_test, pIC50
records = [
    ("CNC(=O)c1cc2c(Oc3ccc(NC(=O)C4(C(=O)Nc5ccc(F)cc5)CC4)cc3)ccnc2cc1OC [Zanzalintinib, reference compound]", "FLT3 (Homo sapiens, UniProt P36888)", 8.27),
]

Using known records, supply pIC50 for COc1cc2nccc(Oc3ccc(NC(=O)C4(C(=O)Nc5ccc(F)cc5)CC4)cc3F)c2cc1Oc1ccc(N)cc1F [Cbo-23]
7.61
